Where these numbers come from: PubChem BioAssay (NCATS)

PROTOCOL TEXT: Confirmatory qHTS to identify inhibitors of SARS-CoV-2 cell entry (AID 1645844); further: potency means the concentration at half of the fitted maximal effect; nearly all actives have a fitted effect of over 45% in size
CONDITION LABEL: SARS-CoV-2 pseudotyped particle cell entry, luciferase; series mostly up to 57.2 µM
Text: Assay Provider: Wei Zheng, Ph.D. National Center for Advancing Translational Sciences, National Institute of Health, Rockville, MD. SARS-CoV-2 spike protein, within the viral envelope, mediates viral attachment and infection of host cells. The SARS-CoV-2 spike protein specifically binds to the host receptor ACE2 (Angiotensin-converting enzyme 2). […] 11. […] Read luminescence signal (Viewlux plate reader, PerkinElmer). […]
Results filed as inconclusive are left out. The source made the active and inactive calls. The call rests on the fitted dose curve.
Potency values by entry
RESULT TYPE: Potency

1) COC(=O)C1=C(C)NC(C)=C(C(=O)OC(C)(C)CN(C)CCC(c2ccccc2)c2ccccc2)C1c1cccc([N+](=O)[O-])c1 (configuration not stated)	6.07 µM (active)
2) C=CC[C@]1(O)CC[C@H]2[C@@H]3CCC4=CC(=O)CCC4=C3C=C[C@@]21C	15.2 µM (active)
3) CCCCCCOC(=O)NC(=N)c1ccc(NCc2nc3cc(C(=O)N(CCC(=O)OCC)c4ccccn4)ccc3n2C)cc1	10.8 µM (active)
4) CN1CCC(=C2c3ccccc3CCc3sccc32)CC1	21.5 µM (active)
5) CCN(CC)CCOc1ccc(/C(=C(\Cl)c2ccccc2)c2ccccc2)cc1	21.5 µM (active)
6) Oc1c(Cl)cc(Cl)cc1Sc1cc(Cl)cc(Cl)c1O	2.71 µM (active)
7) COCCOC(=O)C1=C(C)NC(C)=C(C(=O)OC/C=C/c2ccccc2)C1c1cccc([N+](=O)[O-])c1 (configuration not stated)	24.1 µM (active)
